Target: T1, Human ACVR2A (human, UniProt P27037 20-135, limits assumed); note: test concentration or dose not given here
T1 construct: also called activin receptor, type II A
T1 sequence (P27037 20-135 limits assumed): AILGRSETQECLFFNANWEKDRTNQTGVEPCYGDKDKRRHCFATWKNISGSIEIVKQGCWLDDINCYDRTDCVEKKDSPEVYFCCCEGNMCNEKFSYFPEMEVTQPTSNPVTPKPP
Assay: ELISA
Reported optical density values follow for various binders
Numeric only. Scale: OD

{"BINDER": "371_F03 (antibody, V domains shown, VH/VL only) VH: EVQLLESGGGLVQPGGSLRLSCAASGFTFSSYSMNWVRQAPGKGLEWVSGINYNGGYTSYADSVKGRFTISRDNSKNTLYLQMNSLRAEDTAVYYCARGATWHDTHLDYWGQGTLVTVSS VL: DIQMTQSPSSLSASVGDRVTITCRASQSIITYLNWYQQKPGKAPKLLIYAATSLHSGVPSRFSGSGSGTDFTLTISSLQPEDFATYYCQQSYDNPLTFGGGTKVEIK", "MEASURE_UNIT": "OD", "optical density": 1.19}

Prompt: Return value of optical density for input 376_G06 (antibody, V domains shown, VH/VL only) VH: EVQLLESGGGLVQPGGSLRLSCAASGFTFSSYGMNWVRQAPGKGLEWVAGINYNGGYTGYADSVKGRFTISRDNSKNTLYLQMNSLRAEDTAVYYCARGANWHDTHLDYWGQGTLVTVSS VL: DIQMTQSPSSLSASVGDRVTITCRASQSIVSYVNWYQQKPGKAPKLVIYAATSRASGVPSRFSGSGSGTDFTLTISSLQPEDFATYYCQQSYNSPLTFGGGTKVEIK , no commentary.
Completion: 3.42
